Tested on: Lipopolysaccharide (LPS)
Assay: Binding affinity to Escherichia coli O111:B4 lipopolysaccharide assessed as suppression of FTIC labeled LPS binding to mouse RAW264.7 cells at 20 ug/ml pretreated LPS with cells for 1 hr followed by compound addition measured after 1 hr by flow cytometer assay (reference value: 48.12%)
Format: cell-based
Details: dose 20.0 µg/ml
Positions of bridges follow the written chain, without caps; N, C: chain ends. Non-standard residues stand in square brackets, D forms with d. Residues, ends and D or L forms follow the SMILES beside them. *: point of attachment. Heptanoyl(6-Me) = CC(C)CCCCC(=O)*; dDab = NCC[C@@H](N)C(=O)O; Dab = NCC[C@H](N)C(=O)O
Recorded Flu intensity, one value per entry.
measured-property: Flu intensity (%)

compound: NCCCCNc1nc(NCCCCN)nc(N2CC(Cc3ccccc3)N(c3nc(NCCCCN)nc(NCCCCN)n3)CC2Cc2ccccc2)n1 (configuration not stated)
measured-property: Flu intensity
unit: %
result: 21.2
//
compound: CC(C)CCCCC(=O)N[C@@H](CCN)C(=O)N[C@H](C(=O)N[C@@H](CCN)C(=O)N[C@H]1CCNC(=O)[C@H]([C@@H](C)O)NC(=O)[C@H](CCN)NC(=O)[C@H](CCN)NC(=O)[C@H](CC(C)C)NC(=O)[C@@H](Cc2ccccc2)NC(=O)[C@@H](CCN)NC1=O)[C@@H](C)O ({Heptanoyl(6-Me)}-[Dab]T[Dab][Dab][dDab][dF]L[Dab][Dab]T; lactam 4-C)
measured-property: Flu intensity
unit: %
result: 45.3
